Target Of Assay: PRMT5 (Homo sapiens, UniProt O14744)
Construct: purchased Viva (custom protein)
Sequence (O14744 whole entry): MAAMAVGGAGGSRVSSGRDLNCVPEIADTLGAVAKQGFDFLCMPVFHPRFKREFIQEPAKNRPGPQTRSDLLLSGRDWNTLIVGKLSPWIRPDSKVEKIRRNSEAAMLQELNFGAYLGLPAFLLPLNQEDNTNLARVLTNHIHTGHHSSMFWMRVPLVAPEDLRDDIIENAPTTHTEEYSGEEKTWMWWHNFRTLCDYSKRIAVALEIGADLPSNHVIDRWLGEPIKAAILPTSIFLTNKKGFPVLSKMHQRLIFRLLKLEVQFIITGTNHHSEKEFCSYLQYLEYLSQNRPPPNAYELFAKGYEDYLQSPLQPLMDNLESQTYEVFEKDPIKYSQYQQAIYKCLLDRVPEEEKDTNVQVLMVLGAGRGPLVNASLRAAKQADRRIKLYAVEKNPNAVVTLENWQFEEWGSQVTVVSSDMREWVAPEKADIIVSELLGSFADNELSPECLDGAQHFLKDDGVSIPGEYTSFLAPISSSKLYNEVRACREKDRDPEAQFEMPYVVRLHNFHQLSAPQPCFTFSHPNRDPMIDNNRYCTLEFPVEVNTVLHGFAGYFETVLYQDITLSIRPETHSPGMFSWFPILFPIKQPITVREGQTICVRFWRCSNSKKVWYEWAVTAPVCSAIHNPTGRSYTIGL
Sequence (Q9BQA1 whole entry partner): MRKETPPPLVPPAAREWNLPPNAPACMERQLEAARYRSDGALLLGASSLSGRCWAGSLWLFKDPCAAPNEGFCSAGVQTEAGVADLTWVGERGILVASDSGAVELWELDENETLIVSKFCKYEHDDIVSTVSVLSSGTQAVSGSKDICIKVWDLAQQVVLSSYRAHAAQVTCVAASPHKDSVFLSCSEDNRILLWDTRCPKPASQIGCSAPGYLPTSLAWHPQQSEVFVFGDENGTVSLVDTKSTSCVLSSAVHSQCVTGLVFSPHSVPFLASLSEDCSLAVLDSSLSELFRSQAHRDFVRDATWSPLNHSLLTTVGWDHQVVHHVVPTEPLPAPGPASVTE
Test Method Notes: PRMT5 biochemical IC50 assay with no cofactor
Experimental Parameters: PRMT5, no cofactor; read-out: No Cofactor/rel IC50
pIC50: −log10 of the molar value.
# key: entry, value: pIC50

Solved entries:
| Compound | Target Of Assay | pIC50 |
| --- | --- | --- |
| COc1ncc(NC(=O)C(=O)N2C[C@H](C)CC[C@H]2c2ccc3sc(C(F)(F)F)nc3c2)cc1C(N)=O (single isomer, unassigned) | PRMT5 (Homo sapiens, UniProt O14744) | < 6.30 |
| C[C@@H]1CC[C@@H](c2cc(F)c(O)c(F)c2)N(C(=O)C(=O)Nc2cncc(C(N)=O)c2)C1 (racemic) | PRMT5 (Homo sapiens, UniProt O14744) | 6.30 to 7.30 |
| Cc1cc(NC(=O)C(=O)N2C[C@@H](C)C(F)(F)C[C@@H]2c2cccc3[nH]ncc23)cnc1N (single isomer, unassigned) | PRMT5 (Homo sapiens, UniProt O14744) | < 6.30 |
| C[C@@H]1CC[C@@](C)(c2ccccc2)N(C(=O)C(=O)Nc2cncc(C(N)=O)c2)C1 (racemic) | PRMT5 (Homo sapiens, UniProt O14744) | < 6.30 |
| Cc1cc(NC(=O)C(=O)N2C[C@@H](C)CC[C@@H]2c2ccc3sccc3c2)cnc1N (single isomer, unassigned) | PRMT5 (Homo sapiens, UniProt O14744) | > 7.30 |

Could you now consider this next compound?
stdin: Kindly state the measured pIC50 obtained for CCc1cc(NC(=O)C(=O)N2C[C@@H](C)CC[C@@H]2c2ccc(NC)nc2)cnc1N (single isomer, unassigned) with PRMT5 (Homo sapiens, UniProt O14744).
stdout: < 6.30

====

# key: entry, value: IC50
Target Of Assay: PRMT5 (Homo sapiens, UniProt O14744)
Construct: purchased Viva (custom protein)
Test Method Notes: PRMT5 biochemical IC50 assay with no cofactor
Experimental Parameters: PRMT5, no cofactor; read-out: No Cofactor/rel IC50

| Compound | IC50 |
| --- | --- |
| [2H]c1c([2H])c([C@@]2([2H])CC[C@H](C)CN2C(=O)C(=O)Nc2cncc(C(N)=O)c2)c([2H])c([2H])c1F (racemic) | 50 to 500 nM |
| Cc1cc(NC(=O)C(=O)N2CCCC[C@H]2C2CCCC2)cnc1N (single isomer, unassigned) | 50 to 500 nM |

Could you now consider this next compound?
stdin: Kindly state the measured IC50 obtained for CCc1cc(NC(=O)C(=O)N2C[C@H](C)CC[C@H]2c2ccc(NC(C)=O)cc2)cnc1N (single isomer, unassigned) with PRMT5 (Homo sapiens, UniProt O14744).
stdout: > 500 nM

====

Test system: HAP1 MTAP-intact cell line
Test Method Notes: SDMA in-cell western assay, HAP1 MTAP-intact
Type: cell-based
Experimental Parameters: Homo sapiens, HAP1, SDMA in-cell western, HAP1 MTAP-intact; read-out: MTAP HAP1 intact IC50
Readout Name: IC50

Solved entries:
| Compound | IC50 |
| --- | --- |
| Cc1cc(NC(=O)C(=O)N2C[C@H](C)C(F)(F)C[C@H]2c2ccc(F)cc2)cnc1N (single isomer, unassigned) | > 1000 nM |
| Cc1cc(NC(=O)C(=O)N2C[C@H](C)CC[C@@H]2c2ccnn2C)cnc1N (racemic) | > 1000 nM |
| COc1ncc(NC(=O)C(=O)N2C[C@H](C)CC[C@H]2c2cncs2)cc1C(N)=O (single isomer, unassigned) | > 1000 nM |

stdin: Kindly state the measured IC50 obtained for CC(=O)N1CCC(c2cccc(C3CCCCN3C(=O)C(=O)Nc3cnc(N)c(C)c3)c2)CC1 (racemic) with HAP1 MTAP-intact cell line.
stdout: > 1000 nM

stdin: Kindly state the measured IC50 obtained for Cc1cc(NC(=O)C(=O)N2C[C@@H](C)CC[C@@H]2c2cc3[nH]ncc3s2)cnc1N (single isomer, unassigned) with HAP1 MTAP-intact cell line.
stdout: 100 to 1000 nM

====

# key: entry, value: pIC50
Target Of Assay: PRMT5 (Homo sapiens)
Construct: purchased Viva (custom protein)
Test Method Notes: PRMT5 biochemical IC50 assay with SAM as cofactor
Experimental Parameters: PRMT5, SAM as cofactor; read-out: SAM IC50
pIC50: −log10 of the molar value.

| Molecule | Readout Name | Measured |
| --- | --- | --- |
| C[C@H]1CC[C@H](c2ccc3c(c2)CNC3=O)N(C(=O)C(=O)Nc2cncc(C(N)=O)c2)C1 (single isomer, unassigned) | pIC50 | < 6.30 |
| CCc1cc(NC(=O)C(=O)N2C[C@@H](C)CC[C@@H]2c2ccc(NS(C)(=O)=O)cc2)cnc1N (single isomer, unassigned) | pIC50 | 6.30 to 7.30 |
| CCc1cc(NC(=O)C(=O)N2C[C@@H](C)CC[C@@H]2c2ccc3sc(CCN(C)C)nc3c2)cnc1N (single isomer, unassigned) | pIC50 | > 7.30 |
| Cc1cc(NC(=O)C(=O)N2C[C@@H](C)CC[C@@H]2c2ccc(NS(C)(=O)=O)cc2)cnc1C (single isomer, unassigned) | pIC50 | 6.30 to 7.30 |
| C[C@@H]1CC[C@@H](c2ccn(-c3cc[nH]n3)n2)N(C(=O)C(=O)Nc2cncc(C(N)=O)c2)C1 (single isomer, unassigned) | pIC50 | 6.30 to 7.30 |

Could you now consider this next molecule?
stdin: Can you share its pIC50? I mean this molecule: C[C@H]1CC[C@H](c2cnc3[nH]ncc3c2)N(C(=O)C(=O)Nc2cncc(C(N)=O)c2)C1 (single isomer, unassigned)
stdout: 6.30 to 7.30

====

Target Of Assay: PRMT5 (Homo sapiens, UniProt O14744)
Construct: purchased Viva (custom protein)
Test Method Notes: PRMT5 biochemical IC50 assay with SAM as cofactor
Experimental Parameters: PRMT5, SAM as cofactor; read-out: SAM IC50
Readout Name: IC50

Solved entries:
| Compound | Measured |
| --- | --- |
| COc1ncc(NC(=O)C(=O)N2C[C@@H](C)CC[C@@H]2c2ccc3[nH]cnc3c2)cc1C(N)=O (single isomer, unassigned) [Compound 805] | > 500 nM |
| CCc1cc(NC(=O)C(=O)N2C[C@@H](C)CC[C@@H]2c2ccc3sc(CCN4CCCC4)nc3c2)cnc1N [Compound 1095] | < 50 nM |
| C[C@@H]1CC[C@@H](c2ccccc2)N(C(=O)C(=O)Nc2cnc(O)c(C(N)=O)c2)C1 (racemic) [Compound 494] | > 500 nM |
| C[C@H]1CC[C@H](c2csc3ccccc23)N(C(=O)C(=O)Nc2cncc(C(N)=O)c2)C1 (single isomer, unassigned) [Compound 466] | > 500 nM |
| COc1ncc(NC(=O)C(=O)N2C[C@@H](C)CC[C@@H]2c2ccc3c(c2)C(=O)NC3)cc1C(N)=O (racemic) [Compound 759] | 50 to 500 nM |

stdin: Can you share its IC50? I mean this compound: O=C(Nc1cncc(CO)c1)C(=O)N1CCCCC1c1ccccc1 (stereo not shown) [Compound 136]
stdout: > 500 nM

stdin: Can you share its IC50? I mean this compound: CC(=O)N1CCC(c2cccc(C3CCCCN3C(=O)C(=O)Nc3cncc(C)c3)c2)CC1 (single isomer, unassigned) [Compound 78]
stdout: > 500 nM

stdin: Can you share its IC50? I mean this compound: Cc1cc(NC(=O)C(=O)N2C[C@H](C)CC[C@H]2c2cccc(S(C)(=O)=O)c2)cnc1C (racemic) [Compound 648]
stdout: 50 to 500 nM

stdin: Can you share its IC50? I mean this compound: COc1ncc(NC(=O)C(=O)N2C[C@@H](C)CC[C@@H]2c2cccc3[nH]ncc23)cc1C(N)=O (single isomer, unassigned) [Compound 918]
stdout: 50 to 500 nM

stdin: Can you share its IC50? I mean this compound: COc1ncc(NC(=O)C(=O)N2C[C@H](C)CC[C@H]2c2ccc3scnc3c2)cc1C(N)=O (single isomer, unassigned) [Compound 603]
stdout: > 500 nM

stdin: Can you share its IC50? I mean this compound: CCc1cc(NC(=O)C(=O)N2CC(C)CCC2c2ccc3sc(C4CCN(C)CC4C)nc3c2)cnc1N (racemic) [Compound 1098]
stdout: < 50 nM

stdin: Can you share its IC50? I mean this compound: Cc1cc(NC(=O)C(=O)N2C[C@H](C)CC[C@H]2c2ccc(C(F)(F)F)c(Cl)c2)cnc1N (single isomer, unassigned) [Compound 689]
stdout: > 500 nM

stdin: Can you share its IC50? I mean this compound: CCc1cc(NC(=O)C(=O)N2CC(C)CCC2c2ccc(N3CCC4C(CCCN4C)C3)cc2)cnc1N (single isomer, unassigned) [Compound 1132]
stdout: 50 to 500 nM

====

Target Of Assay: PRMT5 (Homo sapiens)
Construct: purchased Viva (custom protein)
Test Method Notes: PRMT5 biochemical IC50 assay with SAM as cofactor
Experimental Parameters: PRMT5, SAM as cofactor; read-out: SAM IC50
pIC50: −log10 of the molar value.
Readout Name: pIC50

Solved entries:
| Compound | pIC50 |
| --- | --- |
| Cc1cc(NC(=O)C(=O)N2C[C@H](C)CC[C@H]2c2ccc3c(cnn3CCN(C)C)c2)cnc1N (single isomer, unassigned) [Compound 1182] | > 7.30 |
| Cc1ncc(NC(=O)C(=O)N2C[C@@H](C)CC[C@@H]2c2ccccc2)cc1C(N)=O (single isomer, unassigned) [Compound 200] | 6.30 to 7.30 |
| CCc1cc(NC(=O)C(=O)N2C[C@@H](C)CC[C@@H]2c2ccc(N3CCC(CN4CCCC4)CC3)cc2)cnc1N [Compound 1276] | > 7.30 |
| Cc1cc(NC(=O)C(=O)N2C[C@H](C)CC[C@H]2c2ccc(-c3nccs3)cc2)cnc1N (single isomer, unassigned) [Compound 816] | < 6.30 |
| C[C@@H]1CC[C@@H](c2ccc(F)cc2)N(C(=O)C(=O)Nc2cnc(OC(F)F)c(C(N)=O)c2)C1 (racemic) [Compound 889] | < 6.30 |

Could you now consider this next compound?
stdin: Can you share its pIC50? I mean this compound: CCc1cc(NC(=O)C(=O)N2C[C@@H](C)CC[C@@H]2c2ccc3sc(C4CCN(C5COC5)CC4)nc3c2)cnc1N [Compound 1224]
stdout: 6.30 to 7.30

These data points were gathered from patent US11999727B2.
